All figures here come from patent US6720346B2.

# Ki values compiled below
# TARGET_SYSTEM: CDK2/cyclin A (Homo sapiens)
# Construct: made in house; host or cells: CDK2: insect cells (baculovirus); cyclin A: E. coli
# METHOD: Inhibition of CDK2/cyclin A retinoblastoma kinase activity (Ki; % inhibition)
# Type: biochemical
# STATED_CONDITIONS: apparent Ki, CDK2/cyclin A, Rb substrate
Structures can show the parent of a compound that is named as a salt.
PROPERTY_LABEL: Ki (nM)

# MOLECULE, READING
rows = [
    ("CC(CN(C)C)NC(=O)c1ccc(Nc2nc(N)c(C(=O)c3c(F)cccc3F)s2)cc1O (stereo not shown) [Example D2]", 51),
    ("C[C@H](CN1CCCCC1)NC(=O)c1ccc(Nc2nc(N)c(C(=O)c3c(F)cccc3F)s2)cc1 [Example A46, Trifluoroacetate Salt]", 220),
    ("CN(C)c1ccc(NC(=O)c2ccc(Nc3nc(N)c(C(=O)c4c(F)cccc4F)s3)cc2)cc1", 68),
    ("CN1CC[C@H](NC(=O)c2ccc(Nc3nc(N)c(C(=O)c4c(F)cccc4F)s3)cc2)C1", 77),
]
